experiment: Apparent permeability in MDCK-II cells; format: ADME, cell-based, Canis lupus familiaris; details: dog
Field: Papp. Provide a value for each of the compounds that follow.

## Input Could you tell me which Papp is on file for CO[C@H]1C[C@](CC#N)(n2cc(-c3nc(-c4cnn(C)c4)cn4nccc34)cn2)C1 ?
## Output 22 ×10⁻⁶ cm/s

## Input Would you mind doing Cn1cc(-c2cn3nccc3c(-c3cnn(C4(CC#N)CN(CCO)C4)c3)n2)cn1 as well?
## Output 7 ×10⁻⁶ cm/s

## Input Would you mind doing Cn1cc(-c2cn3nccc3c(-c3cnn([C@]4(CC#N)C[C@@H](CC#N)C4)c3)n2)cn1 as well?
## Output 20 ×10⁻⁶ cm/s

## Input Would you mind doing Cn1ccc(-c2cn3nccc3c(-c3cnn([C@]4(CC#N)C[C@H](C#N)C4)c3)n2)n1 as well?
## Output 14 ×10⁻⁶ cm/s

## Input Would you mind doing N#CC[C@]1(n2cc(-c3nc(-c4cn[nH]c4)cn4nccc34)cn2)C[C@@H](C#N)C1 as well?
## Output 6 ×10⁻⁶ cm/s

## Input Would you mind doing N#CC[C@]1(n2cc(-c3nc(-c4cc[nH]n4)cn4nccc34)cn2)C[C@@H](C#N)C1 as well?
## Output 7 ×10⁻⁶ cm/s

## Input Would you mind doing Cn1cc(-c2cn3nccc3c(-c3cnn(C4(CC#N)CN(CC5CC5)C4)c3)n2)cn1 as well?
## Output 27 ×10⁻⁶ cm/s

## Input Would you mind doing N#CC[C@]1(n2cc(-c3nc(-c4cc[nH]n4)cn4nccc34)cn2)C[C@H](C#N)C1 as well?
## Output 17 ×10⁻⁶ cm/s

## Input Would you mind doing CC(=O)N1CC(CC#N)(n2cc(-c3nc(-c4cnn(C)c4)cn4nccc34)cn2)C1 as well?
## Output 4 ×10⁻⁶ cm/s

----------
target: Tyrosine-protein kinase JAK1 (Homo sapiens)
Sequence (P23458 whole entry): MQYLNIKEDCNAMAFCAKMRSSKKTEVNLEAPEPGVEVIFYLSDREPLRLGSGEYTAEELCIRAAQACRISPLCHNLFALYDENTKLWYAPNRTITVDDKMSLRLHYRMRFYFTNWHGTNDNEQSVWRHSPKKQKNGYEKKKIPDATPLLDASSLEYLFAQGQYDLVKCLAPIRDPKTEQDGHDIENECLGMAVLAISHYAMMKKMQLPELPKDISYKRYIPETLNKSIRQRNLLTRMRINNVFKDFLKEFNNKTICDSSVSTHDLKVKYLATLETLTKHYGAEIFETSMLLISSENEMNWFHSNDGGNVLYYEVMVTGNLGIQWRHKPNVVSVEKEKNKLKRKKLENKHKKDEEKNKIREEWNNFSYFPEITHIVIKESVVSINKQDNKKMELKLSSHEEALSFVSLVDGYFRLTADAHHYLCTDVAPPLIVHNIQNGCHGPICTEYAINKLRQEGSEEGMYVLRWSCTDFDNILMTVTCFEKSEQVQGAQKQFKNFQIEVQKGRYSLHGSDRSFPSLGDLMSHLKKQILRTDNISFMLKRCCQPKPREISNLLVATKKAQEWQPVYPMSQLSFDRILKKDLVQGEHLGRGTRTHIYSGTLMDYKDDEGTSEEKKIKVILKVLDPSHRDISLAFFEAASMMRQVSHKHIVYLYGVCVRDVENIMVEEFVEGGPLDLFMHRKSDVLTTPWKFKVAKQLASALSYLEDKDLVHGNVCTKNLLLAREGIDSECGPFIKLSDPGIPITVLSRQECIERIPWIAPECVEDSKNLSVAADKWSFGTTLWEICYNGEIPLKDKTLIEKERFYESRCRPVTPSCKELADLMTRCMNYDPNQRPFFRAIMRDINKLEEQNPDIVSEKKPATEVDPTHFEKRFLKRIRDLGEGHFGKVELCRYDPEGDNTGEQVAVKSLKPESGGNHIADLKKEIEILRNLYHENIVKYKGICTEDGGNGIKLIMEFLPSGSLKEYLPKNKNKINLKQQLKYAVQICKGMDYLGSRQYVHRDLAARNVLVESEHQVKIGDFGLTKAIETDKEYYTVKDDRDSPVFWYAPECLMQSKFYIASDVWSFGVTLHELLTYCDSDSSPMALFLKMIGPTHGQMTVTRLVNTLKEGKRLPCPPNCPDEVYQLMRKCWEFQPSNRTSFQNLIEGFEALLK
Rule: IC50 below 3 µM gives met. Equal to or above 3 µM gives not met.

## Input Quick check: does N#CC[C@]1(n2cc(-c3nc(-c4cc[nH]n4)cn4nccc34)cn2)C[C@H](C#N)C1 have IC50 under 3 µM?
## Output met

## Input Would you mind doing CCN1CC(CC#N)(n2cc(-c3nc(-c4cnn(C)c4)cn4nccc34)cn2)C1 as well?
## Output met

## Input Would you mind doing N#CC[C@]1(n2cc(-c3nc(-c4cn[nH]c4)cn4nccc34)cn2)C[C@@H](C#N)C1 as well?
## Output met

## Input Would you mind doing CC(=O)N1CC(CC#N)(n2cc(-c3nc(-c4cnn(C)c4)cn4nccc34)cn2)C1 as well?
## Output not met

## Input Would you mind doing Cn1ccc(-c2cn3nccc3c(-c3cnn([C@]4(CC#N)C[C@@H](C#N)C4)c3)n2)n1 as well?
## Output met

## Input Would you mind doing N#CC[C@]1(n2cc(-c3nc(-c4cc[nH]n4)cn4nccc34)cn2)C[C@@H](C#N)C1 as well?
## Output met

----------
assay: Apparent clearance in human hepatocytes assessed per million cells; format: ADME, cell-based, Hepatocyte; conditions: read-out: CLH
valueType: hepatocyte CLint (µL/min/1e6 cells)
Hi! Could you send only the number? It should be in µL/min/1e6 cells, unit omitted.

## Input Could you tell me which hepatocyte CLint is on file for CO[C@H]1C[C@](CC#N)(n2cc(-c3nc(-c4cnn(C)c4)cn4nccc34)cn2)C1 ?
## Output 6

## Input Would you mind doing Cn1cc(-c2cn3nccc3c(-c3cnn([C@]4(CC#N)C[C@H](C#N)C4)c3)n2)cn1 as well?
## Output 12

## Input Would you mind doing N#CC[C@]1(n2cc(-c3nc(-c4cc[nH]n4)cn4nccc34)cn2)C[C@H](C#N)C1 as well?
## Output 7

# credit: ChEMBL document CHEMBL4673239
